# tested on: UniProt P61073
# Sequence (P61073 whole entry): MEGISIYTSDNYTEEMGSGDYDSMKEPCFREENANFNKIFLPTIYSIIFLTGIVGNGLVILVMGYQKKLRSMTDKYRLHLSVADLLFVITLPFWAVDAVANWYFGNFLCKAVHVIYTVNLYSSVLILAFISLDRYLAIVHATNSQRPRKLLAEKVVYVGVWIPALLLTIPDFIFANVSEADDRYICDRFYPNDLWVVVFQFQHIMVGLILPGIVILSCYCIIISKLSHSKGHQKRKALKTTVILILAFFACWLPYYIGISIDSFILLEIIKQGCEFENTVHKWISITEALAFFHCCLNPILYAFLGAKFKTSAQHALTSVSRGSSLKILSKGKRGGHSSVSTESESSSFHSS
# protocol details: β-arrestin recruitment, 384-well, Tango CXCR4-bla U2OS cells, normalized to SDF-1α
# Format: cell-based
# Set-up: host or cells: U2OS
# recorded conditions: normalized to SDF-1; read-out: TANGO β-arrestin EC50

sample smiles: CCOc1ccccc1-c1nnc2n1N=C(c1ccc(NC3CCCC3)cc1)CS2
EC50: < 5 µM
//
sample smiles: CCOc1ccccc1-c1nnc2n1N=C(c1ccc(NCC3CCCC3)cc1)CS2
EC50: > 10 µM
//
sample smiles: CCCCOc1ccc(C2=Nn3c(nnc3-c3ccccc3OC)SC2)cc1
EC50: < 5 µM
//
sample smiles: COCCOc1ccc(C2=Nn3c(nnc3-c3ccccc3OC)SC2)cc1
EC50: < 5 µM

Data provenance: patent US20250136617A1
